# Tested on: U251 CNS
# PROTOCOL DESCRIPTION: NCI-60 one-dose screen, 48 h
# MEASUREMENT SETUP: 10 µM unless noted
# Method: Growth inhibition of the U251 human tumor cell line is measured as a screen for anti-cancer activity. Cells are grown in 96 well plates and exposed to the test compound for 48 hours. Compounds are tested at a single concentration, which is 10^-5 M for most compounds. The reported endpoint is percent growth (GI% or GIPRCNT), where numbers from 0 - 100% represent growth inhibition, and numbers from -100% - 0 represent cell death. For example, a value of 40 represents 60% growth inhibition. […]
This is part of a sample that, as a whole, favours compounds with a hit. Of some 83,000 tested, about 20% had one in any assay. Active and inactive are the calls of the source. Rule for the calls: active = growth percent below 10; inactive = the rest.
Outcomes: label 1 for active, label 0 for inactive

MOLECULE	ASSIGNED CATEGORY
O=C(Nc1cc(F)cc2cccnc12)c1cnc(N2CCOCC2)cn1	label 0
COc1cc2c3c(n(CCCN4CCCCC4)c(=O)c2cc1OC)-c1cc2c(cc1C3=O)OCO2	label 1
CC1OC(O[C@@H]2[C@H](O)C(CO)OC(O[C@H]3COC(O[C@H]4CC[C@]5(C)[C@H]6CC[C@]78OC[C@@]9(CCC(C)(C)C[C@H]97)[C@H](O)C[C@@]8(C)[C@]6(C)CC[C@H]5C4(C)C)[C@@H](OC4OC(CO)[C@@H](O)[C@@H](O)[C@@H]4O)[C@@H]3O)[C@H]2OC2OC[C@@H](O)[C@@H](O)[C@@H]2O)[C@@H](O)[C@@H](O)[C@H]1O (stereo partly drawn)	label 1

---

# Test system: K-562 leukemia
# PROTOCOL DESCRIPTION: NCI-60 one-dose screen, 48 h (100 = growth as untreated, 0 = no growth, -100 = all killed)
# MEASUREMENT SETUP: 10 µM unless noted
About 83,000 compounds went through this panel and 20% of them were active in at least one assay; those are over-represented in the sample as a whole.
MEASURE NAME: growth (%)

O=C(NNc1nc2cc(F)c(F)cc2n2cccc12)c1cccnn1 13.3
CN1CCN(c2ccc(C(=O)/C=C/c3ccc(Cl)c(C(F)(F)F)c3)cc2)CC1 7.64
NS(=O)(=O)c1ccc(Nc2nc(N/N=C/c3ccc(F)cc3)nc(Nc3ccccc3)n2)cc1 54.6
Cc1cc(=O)n2nc(-c3cn(C)c4ccc(Cl)cc34)sc2n1 99.2
CCOC(=O)c1c(Nc2ccccc2)nn2c(-c3ccc(OC)c(OC)c3)ccnc12 19.8
Oc1ccc(CSc2nnc(-c3ccc(Br)cc3)n2-c2ccccc2)c2cccnc12 15.8
CCN(CC)CCN1C(=O)c2c(c3c4cc(Br)ccc4[nH]c3c3ccc4ccccc4c23)C1=O -64.8
CC1CCN(S(=O)(=O)c2ncsc2-c2ccccc2)CC1 72.7
CCOC(=O)c1nn(-c2ccc(C)cc2)c(=O)c2c(N)c(C#N)c(-c3ccc(OC)cc3)cc12 118
CCOC(=O)c1c(NC(=O)c2ccc(F)cc2F)sc2c1CCC(=O)C2 86.7

---

# Test system: UO-31 renal
# PROTOCOL DESCRIPTION: NCI-60 one-dose screen, 48 h (100 = growth as untreated, 0 = no growth, -100 = all killed)
# MEASUREMENT SETUP: 10 µM unless noted
# Protocol: Growth inhibition of the UO-31 human tumor cell line is measured as a screen for anti-cancer activity. Cells are grown in 96 well plates and exposed to the test compound for 48 hours. Compounds are tested at a single concentration, which is 10^-5 M for most compounds. The reported endpoint is percent growth (GI% or GIPRCNT), where numbers from 0 - 100% represent growth inhibition, and numbers from -100% - 0 represent cell death. For example, a value of 40 represents 60% growth inhibition. […]
The panel holds about 83,000 compounds, 20% with a hit somewhere; the sample as a whole holds those more often.

COMPOUND	growth / %
Oc1ccc(CSc2nnc(-c3ccc(Br)cc3)n2-c2ccccc2)c2cccnc12	8.19
CN1CCN(c2ccc(C(=O)/C=C/c3ccc(Cl)c(C(F)(F)F)c3)cc2)CC1	50.5
CCOC(=O)/C=c1\sc2n(c1=O)C1C(NN=2)N(CC)C(=O)N1CC (stereo unspecified)	56.2
C/C(=C(/c1ccc(O)cc1)c1ccc(OCCN(C)C)cc1)c1ccc(Cl)cc1	50.6
COc1cc(/C=C/C(=O)c2ccc(NC(=O)COc3cccc4cccnc34)cc2)cc(OC)c1OC	67.7
CN(c1ccc(F)cc1)S(=O)(=O)c1ccc(-c2cnc(C3CC3)o2)cc1	44.5
